Values from patent US5217976A

# Measurement target: angiotensin II (AII) receptors, cell surface membrane fraction of guinea pig adrenal gland (Cavia porcellus, UniProt Q9WV26)
# Sequence (Q9WV26 whole entry): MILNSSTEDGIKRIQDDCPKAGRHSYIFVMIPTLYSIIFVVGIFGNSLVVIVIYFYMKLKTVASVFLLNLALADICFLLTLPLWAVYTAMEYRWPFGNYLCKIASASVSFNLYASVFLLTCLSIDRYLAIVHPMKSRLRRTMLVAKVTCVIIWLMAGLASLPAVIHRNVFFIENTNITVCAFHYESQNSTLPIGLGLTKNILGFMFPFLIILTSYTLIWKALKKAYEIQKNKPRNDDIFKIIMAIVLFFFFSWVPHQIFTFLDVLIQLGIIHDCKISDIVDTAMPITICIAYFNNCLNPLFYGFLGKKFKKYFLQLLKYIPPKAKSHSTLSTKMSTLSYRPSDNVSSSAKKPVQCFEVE
pIC50: −log10 of the molar value.

{"columns": ["Molecule", "pIC50"],
 "data": [
  ["Cc1cc2c(ccc(=O)n2Cc2ccc(-c3ccccc3-c3nnn[nH]3)cc2)c(C)n1.Cl [Example I, hydrochloride]", 8.05]
]}
